src = paper PMC5854746

assay.protocol: clinical;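 further: plasma pharmacokinetics in a phase 1b study of patients with locally advanced or metastatic pancreatic adenocarcinoma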
measurement.setup: human, plasma, oral, Trough concentration min–max, Pat.10, co-medication of acid reducing agents, weeks 1–11, N=11, 100 mg q.d.
property.measured: concentration at 24 h

Look at this compound and give its reported concentration at 24 h. "C#Cc1cccc(Nc2ncnc3cc(OCCOC)c(OCCOC)cc23)c1"
70 to 310 ng/mL

* * *

assay.protocol: clinical
measurement.setup: human, plasma, oral, Mean trough concentration ± SD, Pat.2, co-medication of acid reducing agents, weeks 1–9, N=9, 100 mg q.d.
property.measured: concentration at 24 h (ng/mL)
Give bare numbers, in ng/mL.

Look at this compound and give its reported concentration at 24 h. C#Cc1cccc(Nc2ncnc3cc(OCCOC)c(OCCOC)cc23)c1 [erlotinib]
160
